# Species: Homo sapiens
# Assay Summary: Selectivity index, ratio of IC50 for recombinant human MAO-B to IC50 for recombinant human MAO-A
Measured Endpoint: Ratio IC50
Give bare numbers.

O=C1CCc2ccc(OCCCCN3CCN(c4ccccn4)CC3)cc2N1; 1.5
O=C1CCc2ccc(OCCCCCN3CCc4ccccc4C3)cc2N1; 1.3
O=C1CCc2ccc(OCCCN3CCCCC3)cc2N1; 0.5
C#CCN(CCCOc1ccc2c(c1)NC(=O)CC2)Cc1ccccc1; 0.8
O=C1CCc2ccc(OCCCCN3CCCCC3)cc2N1; 0.7

INPUT: Which Ratio IC50 reading was recorded for the compound C#CCN(CCCCCOc1ccc2c(c1)NC(=O)CC2)Cc1ccccc1 ?
OUTPUT: 0.9

###

Record form. Attribute: IC50. Fill in for each entry.
# Assay Summary: Inhibition of rat serum BuChE using butyrylthiocholine chloride as substrate after 15 mins by Ellman's method
Answers are plain numbers, in µM.

Reference set (3 entries):
O=C1CCc2ccc(OCCCCCN3CCc4ccccc4C3)cc2N1; 11.2
C#CCN(CCCOc1ccc2c(c1)NC(=O)CC2)Cc1ccccc1; 30.3
O=C1CCc2ccc(OCCCCCN3CCCCC3)cc2N1; 31.4

I have 2 compounds here; please give me IC50 for each one.
1. C#CCN(CCCCCOc1ccc2c(c1)NC(=O)CC2)Cc1ccccc1
2. O=C1CCc2ccc(OCCCCN3CCN(c4ccccn4)CC3)cc2N1

OUTPUT:
29.6
40

I have 4 compounds here; please give me IC50 for each one.
1. O=C1CCc2ccc(OCCCCCCN3CCCCC3)cc2N1
2. O=C1CCc2ccc(OCCCCCCN3CCc4ccccc4C3)cc2N1
3. O=C1CCc2ccc(OCCCN3CCCCC3)cc2N1
4. O=C1CCc2ccc(OCCCN3CCC(N4CCCC4)CC3)cc2N1

OUTPUT:
1. 27.2
2. 11.7
3. 22.9
4. 21.5

###

# Measured On: Acetylcholinesterase (Rattus norvegicus, UniProt P37136)
# Sequence (P37136 whole entry): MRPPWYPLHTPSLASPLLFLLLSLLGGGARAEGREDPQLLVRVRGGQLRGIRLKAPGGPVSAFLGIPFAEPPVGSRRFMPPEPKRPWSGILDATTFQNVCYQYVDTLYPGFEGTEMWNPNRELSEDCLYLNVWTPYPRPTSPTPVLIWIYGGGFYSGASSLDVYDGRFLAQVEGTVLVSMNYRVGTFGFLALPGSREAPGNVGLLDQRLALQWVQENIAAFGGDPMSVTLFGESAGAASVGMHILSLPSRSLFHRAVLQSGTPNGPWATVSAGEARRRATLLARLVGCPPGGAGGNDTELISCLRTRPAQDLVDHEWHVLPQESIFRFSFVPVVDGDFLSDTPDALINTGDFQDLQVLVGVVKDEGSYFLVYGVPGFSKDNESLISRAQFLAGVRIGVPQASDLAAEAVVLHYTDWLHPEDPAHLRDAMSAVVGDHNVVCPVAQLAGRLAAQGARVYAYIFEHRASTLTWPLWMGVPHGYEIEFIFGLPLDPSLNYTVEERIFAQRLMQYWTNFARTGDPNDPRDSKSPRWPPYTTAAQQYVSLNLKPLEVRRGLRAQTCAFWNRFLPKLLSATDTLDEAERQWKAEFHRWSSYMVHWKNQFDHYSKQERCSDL
Record form. Attribute: pIC50. Fill in for each entry.
One number for each entry, as −log10 of the molar value.

Reference set (5 entries):
CCN(CC)CCCCCCOc1ccc2c(c1)NC(=O)CC2; 4.38
CC(C)N1CCN(CCCCCOc2ccc3c(c2)NC(=O)CC3)CC1; 5.49
O=C1CCc2ccc(OCCCCN3CCN(c4ccccn4)CC3)cc2N1; 4.68
O=C1CCc2ccc(OCCCCCCN3CCC(Cc4ccccc4)CC3)cc2N1; 5.72
CCN(CC)CCCCCOc1ccc2c(c1)NC(=O)CC2; 4.47

I have 3 compounds here; please give me pIC50 for each one.
1. CCN(CC)CCCCOc1ccc2c(c1)NC(=O)CC2
2. O=C1CCc2ccc(OCCCN3CCCCC3)cc2N1
3. C#CCN(CCCCCOc1ccc2c(c1)NC(=O)CC2)Cc1ccccc1

OUTPUT:
1. 4.84
2. 4.78
3. 4.84

I have 8 compounds here; please give me pIC50 for each one.
1. O=C1CCc2ccc(OCCCCCCN3CCN(Cc4ccccc4)CC3)cc2N1
2. O=C1CCc2ccc(OCCCN3CCN(Cc4ccccc4)CC3)cc2N1
3. O=C1CCc2ccc(OCCCCCCN3CCc4ccccc4C3)cc2N1
4. C#CCN(CCCCCCOc1ccc2c(c1)NC(=O)CC2)Cc1ccccc1
5. O=C1CCc2ccc(OCCCCCCN3CCCC3)cc2N1
6. CC(C)N1CCN(CCCCCCOc2ccc3c(c2)NC(=O)CC3)CC1
7. O=C1CCc2ccc(OCCCCCN3CCCCC3)cc2N1
8. CCN(CC)CCCOc1ccc2c(c1)NC(=O)CC2

OUTPUT:
1. 4.75
2. 4.90
3. 4.97
4. 4.89
5. 5.47
6. 5.61
7. 5.08
8. 4.72

I have 3 compounds here; please give me pIC50 for each one.
1. O=C1CCc2ccc(OCCCCCN3CCN(c4ccccn4)CC3)cc2N1
2. O=C1CCc2ccc(OCCCCCCN3CCN(c4ccccn4)CC3)cc2N1
3. O=C1CCc2ccc(OCCCCN3CCc4ccccc4C3)cc2N1

OUTPUT:
[4.55, 4.47, 4.74]

I have 5 compounds here; please give me pIC50 for each one.
1. O=C1CCc2ccc(OCCCCCCN3CCC(N4CCCC4)CC3)cc2N1
2. O=C1CCc2ccc(OCCCCN3CCN(Cc4ccccc4)CC3)cc2N1
3. O=C1CCc2ccc(OCCCCCN3CCc4ccccc4C3)cc2N1
4. O=C1CCc2ccc(OCCCCCN3CCN(Cc4ccccc4)CC3)cc2N1
5. C#CCN(CCCCOc1ccc2c(c1)NC(=O)CC2)Cc1ccccc1

OUTPUT:
1: 4.91; 2: 4.86; 3: 5.11; 4: 4.80; 5: 4.63
